- Test system: MS2 coat protein
- test details: apparent KD of MS2 coat protein, switch OFF state (with FMN for OFF switches, without FMN for ON switches); designed switch direction (-1 OFF switch, 1 ON switch): -1; higher = weaker reporter binding
- measurement parameters: FMN input: 0 or 200 uM; Eterna round: R93 (includes R88 designs)

item sequence: AAGAUGUCAGGAUAUACAUAAAUAAAAAAUUAUGUUAAAACACAUGAGGAUCACCCAUGUAGAAGGGACAUCAA [AJ 7]
test target: MS2 coat protein
apparent KD of MS2 coat protein (µM): 0.0155
--
item sequence: AACUGUACAGGAUAUACAUGAGGAUCACCCAUGUGAGAAUUAAGUGGCGAACCACAAAGUAGAAGGGUACAGGA [Mat - Exclusion 3 - JL mod - D16]
test target: MS2 coat protein
apparent KD of MS2 coat protein (µM): 0.138
--
item sequence: AAGGGACAUGAGGAUCACCCAUGUCAGGAUAUGCUAUGGAAAAUAAAAAUAAAACAUAGCAGAAGGGACAAAAA [Denovo 4]
test target: MS2 coat protein
apparent KD of MS2 coat protein (µM): 0.0531

----------
- Test system: MS2 coat protein
- test details: apparent KD of MS2 coat protein; designed switch direction (-1 OFF switch, 1 ON switch): -1; higher = weaker reporter binding
- measurement parameters: Eterna round: R95; input ligand: microRNA oligo, concentration not stated
Overview of recorded apparent KD of MS2 coat protein for various sequences
metric: apparent KD of MS2 coat protein (nM)

item sequence: GUGAAGUAAGGAUAUACAUGAGGAUCACCCAUGUGGAGGAAGGUGAUGGGAGUAGGUAGUAGAAGGUACGAGGA [JR_Exclu3_Sub064] (puzzle: Exclusion 3)
readout number: 159

item sequence: AAUAACAGAGGAUAUACUGUUUUAUGUGUUUAUUGUUUUGAACAUGAGGAUCACCCAUGUAGAAGGCUGAGUAA [JMF 39] (puzzle: Exclusion 2)
readout number: 24.5

item sequence: CUAGAUCUUCGGAUCUAGUACAUGAGGAUCACCCAUGUGACGAGUUUAUGGGUGAACAAGCUUUUUGCUCGUCUUAU [Sensor v3 - Turn-off variant 1 - 7] (puzzle: Sensor v3, turn-off variant 1)
readout number: 16.5

item sequence: UAAUAAAGUGUGAGGAUAUGCUGGUCCUUAGAUCAGCAGAAGGCACAUGAGGAUCACCCAUGUAAUAUAUAAAU [Mat - Exclusion 4 - JL Mod - D56] (puzzle: Brourd's mod of Exclusion 4)
readout number: 22.8

item sequence: UGUUGUUGAUAGGAUAUACAGGUAGGAGUAGGAGUAGAAGGAUCUACAUGAGGAUCACCCAUGUAGGAGUGAGA [JR_E6_Sub002] (puzzle: Exclusion 6)
readout number: 14.9

----------
- System: MS2 coat protein
- test details: apparent KD of MS2 coat protein, switch OFF state (with FMN for OFF switches, without FMN for ON switches); designed switch direction (-1 OFF switch, 1 ON switch): -1; higher = weaker reporter binding
- measurement parameters: FMN input: 0 or 200 uM; Eterna round: R93 (includes R88 designs)
Lab note: class by apparent KD of MS2 coat protein, see low = under 30 nM, moderate = from 30 nM up to 60 nM, high = 60 nM and over

item sequence: AACAGGACAGGAUAUACAUGAGGAUCACCCAUGUGAGAAUUUAGCAGCGUACCACACAGUAGAAGGGUCAUGGA [Ruby 23]
category: moderate
//
item sequence: GAUAGUGAAGGAUAUACUGGAGGAGUGCGAUAGAAGCAAGAACAUGAGGAUCACCCAUGUAGAAGGUCAGAAGU [JR_Exc002_Sub1224]
category: low
//
item sequence: CCUAUGUCAGGAUAUCAGUAGUAAAAAAAAAAAAUUACUACUGAGAAGGGACAUGAGGAUCACCCAUGUACCUU [EX4 310: Super Stable 10]
category: low
//
item sequence: AAAAAACAUGAGGAUCACCCAUGUGAGGAUAUCCAAAAGUUAAAGAAAAAGACGAAAAGGAGAAGGCGCAAAAA [Fiskers Exclusion D3]
category: moderate
//
item sequence: CUCUUGUAAGGAUAUGACUACAUAAAAAAAAAAAAAUGUAGUCAGAAGGUACAUGAGGAUCACCCAUGUACAAA [Brourd - Exclusion 4 - Sub 1]
category: moderate
//
item sequence: AAAAAGUCAGGAUAUAUAGGAAAAAUAAAAAAAAUAAAACUAUAGAAGGGACAUGAGGAUCACCCAUGUUAAAA [Ex 4 May 15]
category: low
//
item sequence: AGCUAGCUAGGAUAUACGAACAUGUCAAAAGACGUGAAGGGACAUGAGGAUCACCCAUGUAGAAGGAGCUAGCA [JL 74% mod 6]
category: high
//
item sequence: GGGUAACAUGAGGAUCACCCAUGUGAGGAUAUCCUAGGGAUGGAAGCCAGGCCAAAAAGGAGAAGGUACUAAAG [Janelle Amethyst 18 Mod 17 - Jieux - Exclusion 1]
category: high
//
item sequence: ACAAACCUAGGAUAUACAUGAGGAUCACCCAUGUACAAAGGCGUAGGCGACAAAAGAGGUAGAAGGAGGAAAGG [Disoed]
category: low
//
item sequence: AAAAAACAUGAGGAUCACCCAUGUAAGGAUAUGCUCGAAAGUGCGAAAGCACAAACGAGCAGAAGGUACAAAAA [66%, Wbt, 45]
category: moderate
//
item sequence: AAAAAGGGAGGAUAUACAUGAGGAUCACCCAUGUAAAAAAACGCGGGAGGGAGGGAAGGUAGAAGGCCCAAAAA [Excls3-IV]
category: low
//
item sequence: ACAGUUACAGGAUAUACAUAGGAAAAAAAAAAAAAAAUUCAACAUGAGGAUCACCCAUGUAGAAGGGUAACUGA [Ex2 Design 173: Random 2B]
category: high
//
item sequence: AACAGUACAGGAUAUACAUGAGGAUCACCCAUGUGAAGAUUAAGUGGUGUACCACAAAGUAGAAGGGUACUGGA [Ruby 90]
category: high
//
item sequence: GCUUGGCUAGGAUAUACAUGAGGAUCACCCAUGUGAGAGAAAAAAGUGAGAAAGAAAAGUAGAAGGAGUUGAGG [salish99-ex3-82]
category: moderate
//
item sequence: AAAAAACAUGAGGAUCACCCAUGUAAGGAUAUCCAAAAGAAAAGAAAAGAAAGAAGAAGGAGAAGGUACAAGAA [Sahure]
category: moderate
//
item sequence: AAGUUGACAGGAUAUACUUGGGCAACAAAUAAACUAAUAUAACAUGAGGAUCACCCAUGUAGAAGGGUCAGAAA [JR_Exc002_Sub207]
category: moderate
//
item sequence: GGAAAACAUGAGGAUCACCCAUGUAAGGAUAUGCUAAGGAAGGAAAAAAACCCACCAGGCAGAAGGUACUAAAG [Janelle Amethyst 18 Mod 4 - Jieux - Exclusion 1]
category: moderate
//
item sequence: GGUUUGCUAGGAUAUACAUGAGGAUCACCCAUGUGAGAGAAAAAAGUGAGAAAGAAAAGUAGAAGGAGCGGACG [salish99-ex3-122]
category: high
//
item sequence: AGAAUACAUGAGGAUCACCCAUGUGAGGAUAUCAAAAGAAAAAGAAAAGAAAAGAAAAUGAGAAGGCACAAAAG [EX 1 May 14]
category: moderate
//
item sequence: GCUUGCGAAGGAUAUACAUGAGGAUCACCCAUGUGAGAGAAAAAAGUGAGAAAGAAAAGUAGAAGGUCGUGAGG [salish99-ex3-95]
category: high
//
item sequence: AAGAACUGAGGAUAUACAUGAGGAUCACCCAUGUAAAAGAAAGAAAAGGGAAAGAAAAGUAGAAGGCAGAAGAA [Nebmaatre Amenhotep III]
category: moderate
//
item sequence: AACAGGUCAGGAUAUGUGGAAAAAAUAAAAAAAAUAAAAACACAGAAGGGACAUGAGGAUCACCCAUGUCAACA [May 24]
category: low
//
item sequence: AGGGAGUAAGGAUAUCGGAAAGGACACGAAAGUGACAAAGACGAGAAGGUACAUGAGGAUCACCCAUGUAAAAA [milkweed 24]
category: low
